- target.under.test: α1β2γ2S GABAA receptors (Homo sapiens, UniProt P14867+P47870)
- Sequence (P14867 28-456): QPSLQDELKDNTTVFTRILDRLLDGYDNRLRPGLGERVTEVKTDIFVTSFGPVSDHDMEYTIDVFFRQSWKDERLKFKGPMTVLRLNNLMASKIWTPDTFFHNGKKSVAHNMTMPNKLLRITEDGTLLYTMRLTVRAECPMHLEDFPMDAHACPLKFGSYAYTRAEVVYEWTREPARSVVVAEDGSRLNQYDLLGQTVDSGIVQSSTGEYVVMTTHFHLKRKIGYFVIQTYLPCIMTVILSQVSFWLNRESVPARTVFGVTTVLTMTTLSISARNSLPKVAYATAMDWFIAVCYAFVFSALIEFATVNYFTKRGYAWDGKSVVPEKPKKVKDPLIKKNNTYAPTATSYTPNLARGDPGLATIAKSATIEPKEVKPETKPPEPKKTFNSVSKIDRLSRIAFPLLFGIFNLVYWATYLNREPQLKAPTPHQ
- Sequence (P47870 26-512): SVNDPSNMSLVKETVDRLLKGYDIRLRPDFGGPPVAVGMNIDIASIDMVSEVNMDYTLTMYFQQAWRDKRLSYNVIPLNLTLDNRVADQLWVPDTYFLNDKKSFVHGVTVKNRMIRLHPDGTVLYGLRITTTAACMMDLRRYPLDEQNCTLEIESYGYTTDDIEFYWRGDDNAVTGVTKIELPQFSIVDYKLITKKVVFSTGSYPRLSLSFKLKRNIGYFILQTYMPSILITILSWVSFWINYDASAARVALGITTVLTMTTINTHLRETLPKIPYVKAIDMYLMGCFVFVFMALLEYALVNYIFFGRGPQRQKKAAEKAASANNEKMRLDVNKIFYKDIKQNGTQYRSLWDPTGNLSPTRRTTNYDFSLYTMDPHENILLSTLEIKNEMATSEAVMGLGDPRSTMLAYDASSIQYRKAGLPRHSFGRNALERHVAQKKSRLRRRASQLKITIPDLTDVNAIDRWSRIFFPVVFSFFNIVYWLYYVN
- Sequence (P18507 40-467 isoform P18507-1 partner limits assumed): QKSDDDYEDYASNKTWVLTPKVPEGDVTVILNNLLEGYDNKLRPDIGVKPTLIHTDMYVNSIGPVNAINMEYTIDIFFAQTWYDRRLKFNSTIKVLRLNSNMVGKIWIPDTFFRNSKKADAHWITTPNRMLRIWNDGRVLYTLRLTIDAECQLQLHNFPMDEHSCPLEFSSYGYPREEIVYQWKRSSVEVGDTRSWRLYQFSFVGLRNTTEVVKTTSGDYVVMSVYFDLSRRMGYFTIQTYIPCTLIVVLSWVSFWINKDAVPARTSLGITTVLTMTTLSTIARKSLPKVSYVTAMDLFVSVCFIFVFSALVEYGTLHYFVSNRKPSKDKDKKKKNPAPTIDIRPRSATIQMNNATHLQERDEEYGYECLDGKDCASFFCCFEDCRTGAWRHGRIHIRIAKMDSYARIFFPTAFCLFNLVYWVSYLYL
- method.notes: Two-microelectrode voltage clamp, IGABA modulation, α1β2γ2S
- condition.label: IGABA enhancement, GABA EC3–7, Xenopus oocytes
// boundary case: EC50 equal to 70 µM maps to false (0); strictly smaller maps to true (1)

CC(C)N(C(=O)/C=C/C=C/c1ccc2c(c1)OCO2)C(C)C [Compound 22] :: false (0)

Task item: Strictly below 70 µM in EC50? CCCN(CCC)C(=O)c1cccc2cc3c(cc12)OCO3 [Compound 72]
Reply: false (0)

Task item: Strictly below 70 µM in EC50? CC(C)N(C(=O)c1cccc(-c2ccc3c(c2)OCO3)c1)C(C)C [Compound 53]
Reply: true (1)

Task item: Strictly below 70 µM in EC50? CCCCN(CCCC)C(=O)/C=C/C=C/c1ccc2c(c1)OCO2 [Compound 25]
Reply: true (1)
